testTarget: T1, recombinant human TGF-β RII/Fc chimera protein (human, UniProt P37173 24-159)
T1 construct: range 24-159; Made in HEK-F cells; Biotinylated where it was put on SA chips, otherwise captured by anti-human IgG; also called human TGFbRII/Fc; hRII-Fc; not shown: Fc region of human IgG1
T1 sequence (P37173 24-159 limits assumed, change not shown): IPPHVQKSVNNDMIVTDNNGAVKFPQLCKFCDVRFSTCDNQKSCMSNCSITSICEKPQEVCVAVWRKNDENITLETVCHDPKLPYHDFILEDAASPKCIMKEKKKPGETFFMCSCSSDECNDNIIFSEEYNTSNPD
assay: SPR Biacore T200, receptor-Fc captured by anti-human IgG, dAb as analyte, 1:1 model
Protocol: Anti-human IgG was immobilised on a Biacore CM4 chip by primary amine coupling according to the manufacturer's instructions. Human TGF-β RII/Fc, cynomolgus TGF-β RII/Fc or human Fc fragment were captured on this surface. Domain antibodies were passed over the two captured receptors at 3 concentrations of 100, 10 and 1 nM (DOM23h-439 dAbs) or 100, 25 and 6.25 nM (DOM23h-271 dAbs). […]
reportedEndpoint: Kd (nM)
Give just the numeric value; nM need not be written.

DOM23h-439-41 (DOM23h-439-25 + C-terminal Alanine + 48I) (VHH, human VH dAb) VHH: EVQLLESGGGLVQPGGSLRLSCAASGFTFGTEQMWWVRQAPGKGLEFISRIDSPGGRTYYADSVKGRFTISRDNSKNTLYLQMNSLRAEDTAVYYCAKRRPTGVSGTFYDYWGQGTLVTVSS; 0.0104
DOM23h-439-42 (DOM23h-439-25 + C-terminal Alanine + 61N) (VHH, human VH dAb) VHH: EVQLLESGGGLVQPGGSLRLSCAASGFTFGTEQMWWVRQAPGKGLEFVSRIDSPGGRTYYANSVKGRFTISRDNSKNTLYLQMNSLRAEDTAVYYCAKRRPTGVSGTFYDYWGQGTLVTVSS; 0.0032
DOM23h-271-123 (VHH, expressed from pC10) VHH: EVQLLESGGGLVQPGGSLRLSCAASGSTFTEYRMWWVRQAPGKGLEWVSAIEPIGHRTYYADSVKGRFTISRDNSKNTLYLQMNSLRAEDTAVYYCAKQAPGEKWARRWDLDYWGQGTLVTVSS; 0.102

Switching to the query record.
Return reported Kd. Input binder: DOM23h-271-129 (VHH, expressed from pC10) VHH: EVQLLESGGGLVQPGGSLRLSCAASGSTFTEYRMWWVRQAPGKGLEWVSAIEPIGHRTYYADSVKGRFTISRDNSKNTLYLQMNSLRAEDTAVYYCAKQAPNQRYVARGRLDYWGQGTLVTVSS 0.0741

Origin of values: patent US20150361176A1
